Assay: Heat stress test, aggregation analysed by SEC
Type: physicochemical
Conditions: post stress test: 0.5 mg/mL in PBS, 75° C. for 30 min; SEC % area
Test readout: Ab in aggregated form (%)
Your answer is read as %, so omit the unit and give the number.

Q. Endpoint output: Ab in aggregated form (%) of AB-09: Prior art anti-PSMA antibody, heavy chain SEQ ID No 15, light chain SEQ ID No 16 (antibody, V domains shown) VH: MELGLRWVLLVALLRGVQCQVQLVESGGGVVQPGRSLRLSCAASGFTFSNYVMHWVRQAPGKGLEWVAIIWYDGSNKYYADSVKGRFTISRDNSKNTLYLQMNSLRAEDTAVYYCAGGYNWNYEYHYYGMDVWGQGTTVTVSS VL: MRVPAQLLGLLLLCFPGARCDIQMTQSPSSLSASVGDRVTITCRASQGITNYLAWFQQKPGKAPKSLIYAASSLQSGVPSKFSGSGSGTDFSLTISSLQPEDFATYYCQQYNSYPITFGQGTRLEIK . Value?
A. 100

Q. For the molecule shown here, AB-05: Humanised anti-PSMA antibody, heavy chain SEQ ID No 5, light chain SEQ ID No 10 (antibody, V domains shown) VH: EVQLVQSGAEVKKPGASVKVSCKASGYTFTEYTIHWVRQAPGKGLEWIGNINPNNGGTTYNQKFEDRVTITVDKSTSTAYMELSSLRSEDTAVYYCAAYWLFDYWGQGTTVTVSS VL: DIQMTQSPSTLSASVGDRVTITCKASQDVGTAVDWYQQKPGQAPKLLIYWASTRHTGVPDRFSGSGSGTDFTLTISRLQPEDFAVYYCQQYNAYSLTFGQGTKVDIK , give the reported Ab in aggregated form (%).
A. 98

Q. Item AB-04: Humanised anti-PSMA antibody, heavy chain SEQ ID No 9, light chain SEQ ID No 8 (antibody, V domains shown) VH: EVQLVQSGAEVKKPGASVKVSCKASGYTFTEYTIHWVRQAPGKGLEWIGNINPNNGGTTYNQKFEDRVTITVDKSTSTAYMELSSLRSEDTAVYYCAGAWTMDYWGQGTTVTVSS VL: DIQMTQSPSTLSASVGDRVTITCKASQDVGTAVDWYQQKPGQAPKLLIYWASTRHTGVPDRFSGSGSGTDFTLTISRLQPEDFAVYYCQQFTRYPLTFGQGTKVDIK has what recorded Ab in aggregated form (%)?
A. 73

Q. Item under review: AB-03: Humanised anti-PSMA antibody, heavy chain SEQ ID No 7, light chain SEQ ID No 8 (antibody, V domains shown) VH: EVQLVQSGAEVKKPGASVKVSCKASGYTFTEYTIHWVRQAPGKGLEWIGNINPNNGGTTYNQKFEDRVTITVDKSTSTAYMELSSLRSEDTAVYYCAGGWTFDYWGQGTTVTVSS VL: DIQMTQSPSTLSASVGDRVTITCKASQDVGTAVDWYQQKPGQAPKLLIYWASTRHTGVPDRFSGSGSGTDFTLTISRLQPEDFAVYYCQQFTRYPLTFGQGTKVDIK . Reported Ab in aggregated form (%)?
A. 64
